Cited source: PubChem BioAssay (EPA / NIEHS)

- method_summary: ATG_RORE_CIS: Attagene CIS-FACTORIAL HepG2 Assay for human RAR-related Orphan Receptor Element (RORE) (AID 2282959)
- condition_notes: HepG2 Attagene cis-factorial RORE reporter, mRNA; actives raise or lower the signal
Activity calls are given as the source filed them. Rule for the calls: active = hit-call score of the fitted dose curve at least 0.9, where 1 is the maximum; inactive = score below 0.9.
Choose one outcome from this list and give only that: active, inactive

{"molecule": "CCCCC(CC)CO[N+](=O)[O-] (stereo not given)", "label_class": "active"}
{"molecule": "N#CCCO", "label_class": "inactive"}
{"molecule": "C[C@H]1O[C@@H](O[C@H]2[C@@H](O)C[C@H](O[C@H]3[C@@H](O)C[C@H](O[C@H]4CC[C@@]5(C)[C@H](CC[C@@H]6[C@@H]5CC[C@]5(C)[C@@H](C7=CC(=O)OC7)CC[C@]65O)C4)O[C@@H]3C)O[C@@H]2C)C[C@H](O)[C@@H]1O", "label_class": "inactive"}
{"molecule": "ClC1=C(Cl)[C@]2(Cl)[C@H]3[C@H]([C@H]4C=C[C@H]3C4)[C@@]1(Cl)C2(Cl)Cl", "label_class": "inactive"}

Now turn to the next molecule.
*Q* Assay outcome for `c1cc[c]([Hg][c]2ccccc2)cc1` : what was it?
*A* active

----------
- method_summary: ATG_GRE_CIS: Attagene CIS-FACTORIAL HepG2 Assay for human Glucocorticoid Response Elements (GRE) (AID 2282947)
- condition_notes: HepG2 GRE cis-reporter, Attagene multiplex mRNA; actives raise or lower the signal
Activity calls are given as the source filed them. The calls were made as follows: active = hit-call score of the fitted dose curve at least 0.9, where 1 is the maximum; inactive = score below 0.9.
Choose one outcome from this list and give only that: label 1 for active, label 0 for inactive

Solved entries:
{"molecule": "O=C(NCO)NCO", "label_class": "label 0"}
{"molecule": "COC[C@H](C)N(C(=O)CCl)c1c(C)csc1C", "label_class": "label 0"}
{"molecule": "O=C(c1ccccc1)C(Cl)Cl", "label_class": "label 0"}
{"molecule": "BrCCBr", "label_class": "label 0"}
{"molecule": "C[C@H]1O[C@@H](O[C@H]2[C@@H](O)C[C@H](O[C@H]3[C@@H](O)C[C@H](O[C@H]4CC[C@@]5(C)[C@H](CC[C@@H]6[C@@H]5CC[C@]5(C)[C@@H](C7=CC(=O)OC7)CC[C@]65O)C4)O[C@@H]3C)O[C@@H]2C)C[C@H](O)[C@@H]1O", "label_class": "label 1"}

*Q* Assay outcome for `CC(=O)c1cc(C(C)(C)C)cc2c1CCC2(C)C` : what was it?
*A* label 1

*Q* Assay outcome for `CC(=O)[O][Hg][c]1ccccc1` : what was it?
*A* label 1

*Q* Assay outcome for CC(=O)C(Cl)C(=O)N(C)C (configuration not stated) : what was it?
*A* label 0

*Q* Assay outcome for `ClCc1ccccn1` : what was it?
*A* label 0

*Q* Assay outcome for `Nc1ncc([N+](=O)[O-])s1` : what was it?
*A* label 0

*Q* Assay outcome for `CCOP(=S)(OCC)SCSP(=S)(OCC)OCC` : what was it?
*A* label 0

*Q* Assay outcome for CC12CC1(C)C(=O)N(c1cc(Cl)cc(Cl)c1)C2=O (configuration not stated) : what was it?
*A* label 0

----------
- method_summary: BSK_BE3C_SRB: Viability Assessment in the BioMAP Diversity Plus: BE3C Assay (AID 2283028)
- condition_notes: primary human bronchial epithelial cells
Active and inactive are the calls of the source. The calls were made as follows: active = hit-call score of the fitted dose curve at least 0.9, where 1 is the maximum; inactive = score below 0.9.
Choose one outcome from this list and give only that: y for active, n for inactive

Solved entries:
{"compound": "COC(=O)c1sccc1S(=O)(=O)NC(=O)Nc1nc(C)nc(OC)n1", "label_class": "n"}
{"compound": "O=C(O)C(Cl)(Cl)Cl", "label_class": "n"}
{"compound": "CC(C)(C)CC(C)(C)c1ccc(O)cc1", "label_class": "y"}
{"compound": "CCC(=O)C(CC(C)N(C)C)(c1ccccc1)c1ccccc1 (stereo not given)", "label_class": "n"}
{"compound": "CCCCCCCCc1ccc(O)cc1", "label_class": "y"}

*Q* Assay outcome for `CCCCCCCCC(=O)NCc1ccc(O)c(OC)c1` : what was it?
*A* n

*Q* Assay outcome for `COc1cc(-c2ccc(N)c(OC)c2)ccc1N` : what was it?
*A* n

*Q* Assay outcome for `COP(=S)(OC)Oc1ccc(Sc2ccc(OP(=S)(OC)OC)cc2)cc1` : what was it?
*A* n

*Q* Assay outcome for `COC(=O)Cc1ccccc1` : what was it?
*A* n

*Q* Assay outcome for `NC(=S)Nc1ccccc1` : what was it?
*A* n

----------
- Read-out: Tumor necrosis factor (Homo sapiens) (UniProt P01375)
- Sequence (P01375 whole entry, looked up): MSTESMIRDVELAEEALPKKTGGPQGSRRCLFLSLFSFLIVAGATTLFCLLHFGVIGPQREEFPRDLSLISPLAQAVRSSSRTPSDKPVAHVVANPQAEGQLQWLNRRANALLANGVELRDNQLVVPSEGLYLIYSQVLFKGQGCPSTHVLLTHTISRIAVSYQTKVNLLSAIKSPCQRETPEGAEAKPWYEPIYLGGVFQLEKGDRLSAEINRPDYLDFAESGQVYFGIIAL
- method_summary: BSK_LPS_TNFa: BioMAP Diversity Plus: LPS Assay for Tumour Necrosis Factor alpha (TNFa) Biomarker Activity (AID 2283085)
- condition_notes: primary human HUVEC with PBMC; actives raise or lower the signal
- Method: BSK_LPS is a cell-based, multiplexed-readout assay that uses umbilical vein endothelium and peripheral blood mononuclear cells, a human vascular primary cell co-culture, with measurements taken at 24 hours after chemical dosing in a 96-well plate.BSK_LPS_TNFa is an assay component measured in the BSK_LPS assay. It measures TNF-a antibody related to regulation of gene expression using ELISA technology.Data from the assay component BSK_LPS_TNFa was analyzed into 1 assay endpoint. […]
Calls of active or inactive are those of the source. Rule for the calls: active = hit-call score of the fitted dose curve at least 0.9, where 1 is the maximum; inactive = score below 0.9.
Choose one outcome from this list and give only that: active, inactive

Solved entries:
{"molecule": "O=C(OC1CCCCC1)c1ccccc1C(=O)OC1CCCCC1", "label_class": "active"}
{"molecule": "CCCCCCCCc1ccc(O)cc1", "label_class": "active"}
{"molecule": "CCC(=O)C(CC(C)N(C)C)(c1ccccc1)c1ccccc1 (stereo unspecified)", "label_class": "inactive"}

*Q* Assay outcome for `CC(C)(c1ccccc1)c1ccc(O)c(C(C)(C)c2ccccc2)c1` : what was it?
*A* active

*Q* Assay outcome for `COc1cc(-c2ccc(N)c(OC)c2)ccc1N` : what was it?
*A* inactive

*Q* Assay outcome for `O=C(O)CCC(F)(C(F)(F)F)C(F)(F)F` : what was it?
*A* inactive

*Q* Assay outcome for `O=C(Nc1ccc2[nH]ccc2c1)c1cc2cc(F)ccc2n1Cc1cccc(F)c1` : what was it?
*A* active

*Q* Assay outcome for `C(=NC1CCCCC1)=NC1CCCCC1` : what was it?
*A* active

*Q* Assay outcome for `COc1cc(OC)nc(NC(=O)NS(=O)(=O)c2ncccc2C(=O)N(C)C)n1` : what was it?
*A* inactive

*Q* Assay outcome for `COC(=O)c1sccc1S(=O)(=O)NC(=O)Nc1nc(C)nc(OC)n1` : what was it?
*A* inactive

*Q* Assay outcome for `CC(C)(C)CC(C)(C)c1ccc(O)cc1` : what was it?
*A* active

----------
- Read-out: Vascular cell adhesion molecule 1 (VCAM1), VCAM1 (gene 7412)
- method_summary: BSK_LPS_VCAM1: BioMAP Diversity Plus: LPS Assay for Vascular cell adhesion molecule 1 (VCAM1) Biomarker Activity (AID 2283086)
- condition_notes: primary human HUVEC with PBMC; actives raise or lower the signal
Activity calls are given as the source filed them. The calls were made as follows: active = hit-call score of the fitted dose curve at least 0.9, where 1 is the maximum; inactive = score below 0.9.
Choose one outcome from this list and give only that: active, inactive

Solved entries:
{"input_smiles": "COP(=S)(OC)Oc1ccc(Sc2ccc(OP(=S)(OC)OC)cc2)cc1", "label_class": "inactive"}
{"input_smiles": "O=C(OC1CCCCC1)c1ccccc1C(=O)OC1CCCCC1", "label_class": "active"}
{"input_smiles": "C=C(C)C(=O)[O][Sn]([CH2]CCC)([CH2]CCC)[CH2]CCC", "label_class": "active"}

*Q* Assay outcome for `Cn1sc(Cl)cc1=O` : what was it?
*A* active

----------
- measured_target: X-box-binding protein 1 (Homo sapiens)
- method_summary: ATG_Xbp1_CIS: Attagene CIS-FACTORIAL HepG2 Assay for human X-box Binding Protein 1 (XBP1) (AID 2282972)
- condition_notes: HepG2 XBP1 cis-element reporter, Attagene multiplex; actives raise or lower the signal
Active and inactive are the calls of the source. Rule for the calls: active = hit-call score of the fitted dose curve at least 0.9, where 1 is the maximum; inactive = score below 0.9.

{"input_smiles": "Cc1ccc2ccccc2c1C", "measured_target": "X-box-binding protein 1 (Homo sapiens)", "outcome": "inactive"}
{"input_smiles": "CC(C)c1cccc(C(C)C)c1O", "measured_target": "X-box-binding protein 1 (Homo sapiens)", "outcome": "inactive"}
{"input_smiles": "Nc1ccc(Cl)cc1C(=O)c1ccccc1", "measured_target": "X-box-binding protein 1 (Homo sapiens)", "outcome": "inactive"}
{"input_smiles": "Cc1cc(Cl)ccc1O[C@H](C)C(=O)O", "measured_target": "X-box-binding protein 1 (Homo sapiens)", "outcome": "inactive"}
